# MEASUREMENT_NOTES: Immunotoxin (SS1P) sensitization/mitigation study. Vehicle arm (DMEM) (AID 1159513); further: potency means the concentration at half of the fitted maximal effect
# REPORTED_CONDITIONS: cell viability with vehicle (DMEM); series mostly up to 46.1 µM
Activity calls are given as the source filed them. How the calls were made is not given here.
METRIC: Potency

COMPOUND	Potency
CC[C@@]1(O)C(=O)OCc2c1cc1n(c2=O)Cc2cc3c(CN(C)C)c(O)ccc3nc2-1	5.9 µM (active)
CCCc1nc2c(C)cc(-c3nc4ccccc4n3C)cc2n1Cc1ccc(-c2ccccc2C(=O)O)cc1	inactive
CN(C)C(=N)N=C(N)N	inactive
CCCCC/C=C\C/C=C\C/C=C\C/C=C\CCCC(=O)NC1CC1	inactive
C[C@]12CCC(=O)C(O)=C1CC[C@@H]1[C@@H]2CC[C@]2(C)C(=O)CC[C@@H]12	inactive
COc1ccc2nc(S(=O)Cc3ncc(C)c(OC)c3C)[nH]c2c1 (configuration not stated)	inactive
CS(=O)c1ccc(-c2nc(-c3ccc(F)cc3)c(-c3ccncc3)[nH]2)cc1 (configuration not stated)	inactive
COc1cc([C@@H]2c3cc4c(cc3[C@H](O)[C@H]3COC(=O)[C@H]23)OCO4)cc(OC)c1OC	0.0083 µM (active)
CC(O)(CS(=O)(=O)c1ccc(F)cc1)C(=O)Nc1ccc(C#N)c(C(F)(F)F)c1 (configuration not stated)	inactive
CC(C)n1c(C=C[C@H](O)C[C@H](O)CC(=O)O)c(-c2ccc(F)cc2)c2ccccc21	9.35 µM (active)

Quick one: give me Potency for each item below, same order please.
1. CC(C)C[C@H](NC(=O)[C@H](CCc1ccccc1)NC(=O)CN1CCOCC1)C(=O)N[C@@H](Cc1ccccc1)C(=O)N[C@@H](CC(C)C)C(=O)[C@@]1(C)CO1
2. Cc1sc2c(c1C)C(c1ccc(Cl)cc1)=N[C@@H](CC(=O)OC(C)(C)C)c1nnc(C)n1-2
3. Nc1cccc2c1CN(C1CCC(=O)NC1=O)C2=O (configuration not stated)
4. Cc1ccc(-c2cc(C(F)(F)F)nn2-c2ccc(S(N)(=O)=O)cc2)cc1
5. COc1cccc2c1C(=O)c1c(O)c3c(c(O)c1C2=O)C[C@@](O)(C(=O)CO)C[C@@H]3O[C@H]1C[C@H](N)[C@H](O)[C@H](C)O1
6. CC(=O)O[C@@]12CO[C@@H]1C[C@H](O)[C@@]1(C)C(=O)[C@H](O)C3=C(C)[C@@H](OC(=O)[C@H](O)[C@@H](NC(=O)OC(C)(C)C)c4ccccc4)C[C@@](O)([C@@H](OC(=O)c4ccccc4)[C@H]21)C3(C)C
7. CC1=C2C[C@@H]3[C@@H](CC=C4C[C@@H](O)CC[C@@]43C)[C@@H]2CC[C@]12O[C@H]1C[C@H](C)CN[C@H]1[C@H]2C

1. 0.0418 µM (active)
2. 10.5 µM (active)
3. inactive
4. 38.2 µM (active)
5. 0.187 µM (active)
6. inactive
7. 20.9 µM (active)

---

I'd be grateful if you could share measured viability change for these entries.
# MEASUREMENT_NOTES: Nrf2 qHTS screen for inhibitors: Validation (AID 493153)
# REPORTED_CONDITIONS: A549 ARE-Fluc reporter, 18-24 h; measured here: cytotoxicity max response
Results filed as inconclusive are left out.
Answers are plain numbers, in %.

Below, 5 compounds whose answers are already recorded.
COMPOUND	viability change / %
CC[C@@H](CO)NC(=O)[C@@H]1C=C2c3cccc4[nH]cc(c34)C[C@H]2N(C)C1	-12.7
NCC(O)c1ccc(O)cc1 (centres undefined)	0.943
Cc1ccc(S(=O)(=O)N[C@@H](CCCCN)C(=O)CCl)cc1	-2.81
CNCC(O)c1ccc(O)cc1 (centres undefined)	-6.1
Nc1ccncc1	-2.07

Record viability change per entry; entries follow.
1. CCCN1CCC[C@@H]2Cc3nc(N)ncc3C[C@H]21
2. COc1ccc(Cc2nccc3cc(OC)c(OC)cc23)cc1OC
3. c1ccc(C2CC2)c(OCC2=NCCN2)c1
4. Cc1cccc(C)c1NC(=O)CN1CCCC1=O
5. O=C1NCN(c2ccccc2)C12CCN(CC1COc3ccccc3O1)CC2 (centres undefined)
6. O=c1[nH]c2ccccc2n1CCCN1CCC(n2c(=O)[nH]c3cc(Cl)ccc32)CC1

[1.56, -7.85, 5.58, -4.1, 1.49, -5.95]

Field: viability change. Fill in for each record below.
1. N#CC(C#N)=Cc1ccc(O)c(O)c1
2. COc1ccccc1N1CCNCC1
3. CC[C@@H](CO)NC(=O)[C@@H]1C=C2c3cccc4c3c(cn4C)C[C@H]2N(C)C1

1. -7.57
2. 10.4
3. -1.92
